Below: a set of entries, each annotated with reported protein stability index.
B1: RSPH3 (parent)
chain: QRLEEQERRHREEKERRKKQQWEI

Variants of: B1
Experiment: protein stability index of a GFP-peptide fusion (GPS, HEK-293T) (PSI 1-6); higher = more stable;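 also: lentivirally expressed fusions sorted by FACS into six bins by GFP to DsRed ratio, PSI derived from sequencing read proportions per bin multiplied by bin number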
Settings: c terminus: a fixed tail appended
Quick one: just the number, no unit, thanks!

{"columns": ["SEQUENCE STRING", "protein stability index"],
 "data": [
  ["QRLWEQERRHREEKERRKKQQWEI [E4W]", 4.04],
  ["QRWEEQERRHREEKERRKKQQWEI [L3W]", 4.06]
]}

In: Entry under review: QMLEEQERRHREEKERRKKQQWEI [R2M] . Reported protein stability index?
Out: 4.06

In: Find the recorded protein stability index belonging to QRLEEQERRHREPKERRKKQQWEI [E13P] and report it.
Out: 4.06

In: Recorded protein stability index of QRLMEQERRHREEKERRKKQQWEI [E4M] , please.
Out: 4.1
